All values here come from patent US20260306638A1.

target: HiBit-BRG1 fusion protein (Homo sapiens); construct: HiBiT; expressed in transfected cells; test: HiBit-BRG1 degradation in a stable HeLa cell line expressing HiBit-BRG1 and LgBit (cell-based degradation assay); conditions: human, HeLa cells, 24 h, 30 μM top dose, read-out: BRG1 HiBit Degradation Maximum
Sequence (P51532 whole entry, the tested form may be a part): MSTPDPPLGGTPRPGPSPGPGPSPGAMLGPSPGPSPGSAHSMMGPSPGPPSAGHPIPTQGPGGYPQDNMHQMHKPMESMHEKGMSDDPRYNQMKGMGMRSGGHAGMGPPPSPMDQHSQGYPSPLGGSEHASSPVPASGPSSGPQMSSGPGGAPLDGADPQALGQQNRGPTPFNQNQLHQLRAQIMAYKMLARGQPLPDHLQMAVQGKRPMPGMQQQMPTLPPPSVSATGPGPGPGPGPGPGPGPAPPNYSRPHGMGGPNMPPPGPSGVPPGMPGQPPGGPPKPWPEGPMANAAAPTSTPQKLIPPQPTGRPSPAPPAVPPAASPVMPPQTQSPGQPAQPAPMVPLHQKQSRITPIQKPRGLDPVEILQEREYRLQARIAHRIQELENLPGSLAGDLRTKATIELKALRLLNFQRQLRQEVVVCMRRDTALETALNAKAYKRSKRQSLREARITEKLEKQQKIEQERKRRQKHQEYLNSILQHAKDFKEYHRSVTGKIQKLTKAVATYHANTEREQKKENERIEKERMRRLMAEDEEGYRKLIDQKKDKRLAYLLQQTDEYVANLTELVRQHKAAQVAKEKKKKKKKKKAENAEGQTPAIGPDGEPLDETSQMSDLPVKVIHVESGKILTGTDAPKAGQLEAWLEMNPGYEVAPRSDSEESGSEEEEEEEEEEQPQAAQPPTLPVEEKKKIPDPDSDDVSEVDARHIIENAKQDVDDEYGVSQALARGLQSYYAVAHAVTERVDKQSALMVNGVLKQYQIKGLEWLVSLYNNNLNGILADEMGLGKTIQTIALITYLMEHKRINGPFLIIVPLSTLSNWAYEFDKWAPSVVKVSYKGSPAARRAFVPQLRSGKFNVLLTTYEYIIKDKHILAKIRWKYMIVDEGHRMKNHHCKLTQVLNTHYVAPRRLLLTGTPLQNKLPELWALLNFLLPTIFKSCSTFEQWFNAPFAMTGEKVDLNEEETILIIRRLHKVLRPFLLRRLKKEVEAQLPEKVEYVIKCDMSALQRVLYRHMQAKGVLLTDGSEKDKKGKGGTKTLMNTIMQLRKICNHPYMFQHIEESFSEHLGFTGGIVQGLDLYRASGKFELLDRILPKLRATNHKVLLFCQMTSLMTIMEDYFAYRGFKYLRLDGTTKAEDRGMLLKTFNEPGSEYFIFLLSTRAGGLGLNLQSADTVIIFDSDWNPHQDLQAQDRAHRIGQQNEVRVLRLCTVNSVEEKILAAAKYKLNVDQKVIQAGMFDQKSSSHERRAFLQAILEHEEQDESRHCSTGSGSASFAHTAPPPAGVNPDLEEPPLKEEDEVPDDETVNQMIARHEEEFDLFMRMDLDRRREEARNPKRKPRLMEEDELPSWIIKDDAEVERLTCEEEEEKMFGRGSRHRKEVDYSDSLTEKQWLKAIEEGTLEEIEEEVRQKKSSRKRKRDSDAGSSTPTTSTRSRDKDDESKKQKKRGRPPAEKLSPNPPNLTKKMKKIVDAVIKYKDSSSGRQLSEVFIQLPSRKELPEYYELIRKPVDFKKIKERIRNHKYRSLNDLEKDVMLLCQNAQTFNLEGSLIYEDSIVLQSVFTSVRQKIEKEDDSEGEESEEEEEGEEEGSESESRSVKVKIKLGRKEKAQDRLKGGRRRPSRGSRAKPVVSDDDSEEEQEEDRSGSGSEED
assay-endpoint: Dmax

Check out these entries, answers already filled in.
{"molecule": "Cc1ncsc1-c1ccc([C@H](C)NC(=O)[C@@H]2C[C@@H](O)CN2C(=O)[C@H](C(C)C)n2cc(-c3ccc4nnc(-c5ccccc5O)cc4n3)nn2)cc1 [Compound 2]", "Dmax": "≥ 75%"}
{"molecule": "Cc1ncsc1-c1ccc([C@H](C)NC(=O)[C@@H]2C[C@@H](O)CN2C(=O)[C@@H](c2cc(N3CC4(C3)CN(c3cc5nnc(-c6ccccc6O)cc5n(C)c3=O)C4)no2)C(C)C)cc1 (single isomer, unassigned) [Compound 4]", "Dmax": "< 50%"}
{"molecule": "Cc1ncsc1-c1ccc([C@H](C)NC(=O)[C@@H]2C[C@@H](O)CN2C(=O)[C@@H](c2cc(N3CC4(C3)CN(c3ccc5nnc(-c6ccccc6O)cc5n3)C4)no2)C(C)C)cc1 [Compound 1]", "Dmax": "< 50%"}

Then there is this molecule:
Exercise: Please look up its Dmax: Cc1nc2cc(-c3ccccc3O)nnc2cc1N1CC2(CN(c3cc([C@H](C(=O)N4C[C@H](O)C[C@H]4C(=O)N[C@@H](C)c4ccc(-c5scnc5C)cc4)C(C)C)on3)C2)C1 [Compound 3]
Solution: < 50%
